The origin of these recorded values is patent US20250170141A1.

# protocolDetails: Mouse Pharmacokinetic Studies (50 mg/kg oral gavage, plasma LC-MS/MS)
# Format: in vivo
# cond: male C57BL/6 mice, non-fasted, 50 mg/kg
Classification field: Satisfied = T1/2 at or over 2 h; Not satisfied = T1/2 under 2 h.

Worked examples, 3 compounds total:
Dear colleague, could you confirm whether CC(c1ccccc1F)c1c(F)ccc2c1NC(NCc1cccc(F)c1)=NS2(=O)=O (single isomer, unassigned) [Compound 10-5B] has T1/2 at or above 2 h? Satisfied

Dear colleague, could you confirm whether CC(c1ccc(F)cc1)c1c(F)ccc2c1NC(NCc1ncccc1F)=NS2(=O)=O (single isomer, unassigned) [Compound 10-4B] has T1/2 at or above 2 h? Satisfied

Dear colleague, could you confirm whether CC(c1ccccc1F)c1c(F)ccc2c1NC(NCc1ncccc1F)=NS2(=O)=O (single isomer, unassigned) [Compound 10-1B] has T1/2 at or above 2 h? Not satisfied

Further cases:
Dear colleague, could you confirm whether CC(c1ccccc1F)c1c(F)ccc2c1NC(NCc1cccc(F)n1)=NS2(=O)=O (single isomer, unassigned) [Compound 10-2A] has T1/2 at or above 2 h? Satisfied
